target: Ret kinase (Homo sapiens, UniProt P07949); construct: purchased Millipore (KinaseProfiler Service); assay: KinaseProfiler kinase inhibition assay, Ret; format: biochemical; conditions: 1 μM compound
Sequence (P07949 29-1114): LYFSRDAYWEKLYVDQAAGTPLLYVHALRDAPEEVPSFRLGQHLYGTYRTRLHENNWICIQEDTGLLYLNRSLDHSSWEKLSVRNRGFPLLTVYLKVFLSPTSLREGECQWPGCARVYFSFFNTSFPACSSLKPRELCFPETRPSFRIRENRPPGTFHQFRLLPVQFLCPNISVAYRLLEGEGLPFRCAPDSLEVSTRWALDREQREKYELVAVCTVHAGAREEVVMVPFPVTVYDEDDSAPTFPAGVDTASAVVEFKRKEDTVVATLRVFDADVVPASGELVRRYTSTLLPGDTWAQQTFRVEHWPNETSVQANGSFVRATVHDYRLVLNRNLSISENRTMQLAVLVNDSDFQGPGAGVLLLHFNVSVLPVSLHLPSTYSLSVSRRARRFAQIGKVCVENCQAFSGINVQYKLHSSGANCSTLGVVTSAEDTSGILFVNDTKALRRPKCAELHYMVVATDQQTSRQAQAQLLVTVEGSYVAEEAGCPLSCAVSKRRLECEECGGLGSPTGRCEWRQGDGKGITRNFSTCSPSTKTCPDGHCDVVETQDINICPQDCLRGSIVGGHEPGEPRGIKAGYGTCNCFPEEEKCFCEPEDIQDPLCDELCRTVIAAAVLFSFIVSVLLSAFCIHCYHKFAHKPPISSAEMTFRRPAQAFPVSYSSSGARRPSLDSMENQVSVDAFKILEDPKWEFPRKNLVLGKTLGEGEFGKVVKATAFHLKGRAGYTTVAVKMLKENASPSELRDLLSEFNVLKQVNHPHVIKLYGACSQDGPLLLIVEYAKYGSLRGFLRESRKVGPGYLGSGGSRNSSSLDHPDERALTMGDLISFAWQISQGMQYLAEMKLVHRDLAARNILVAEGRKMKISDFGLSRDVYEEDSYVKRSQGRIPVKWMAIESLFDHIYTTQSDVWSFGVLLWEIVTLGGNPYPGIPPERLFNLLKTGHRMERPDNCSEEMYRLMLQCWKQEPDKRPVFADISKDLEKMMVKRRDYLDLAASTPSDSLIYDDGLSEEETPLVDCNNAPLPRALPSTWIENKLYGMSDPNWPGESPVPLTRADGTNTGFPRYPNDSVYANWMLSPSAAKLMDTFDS

{"COMPOUND": "CCN1CCN(c2ccc(Nc3ncnc(Oc4ccc5[nH]c(C)cc5c4F)c3C(N)=O)cc2)CC1 [Compound 68]", "ASSAY TARGET": "Ret kinase (Homo sapiens, UniProt P07949)", "inhibition at 1 µM [%]": 97}
{"COMPOUND": "Cc1cc2c(F)c(Oc3ncnc(Nc4ccc(N5CCN(C)CC5)cn4)c3C)ccc2[nH]1 [Compound 41]", "ASSAY TARGET": "Ret kinase (Homo sapiens, UniProt P07949)", "inhibition at 1 µM [%]": -35}
{"COMPOUND": "Cc1cc2c(F)c(Oc3cc(Nc4ccc(N5CCN(C)CC5)c(F)c4)ncn3)ccc2[nH]1 [Example 14]", "ASSAY TARGET": "Ret kinase (Homo sapiens, UniProt P07949)", "inhibition at 1 µM [%]": 48}
{"COMPOUND": "Cc1cc2c(F)c(Oc3ncnc(Nc4ccc(N5CCN(C)CC5)cc4)c3N)ccc2[nH]1 [Compound 46]", "ASSAY TARGET": "Ret kinase (Homo sapiens, UniProt P07949)", "inhibition at 1 µM [%]": -43}
{"COMPOUND": "Cc1cc2c(F)c(Oc3cc(Nc4cccc(N5CCOCC5)c4)ncn3)ccc2[nH]1 [Example 8]", "ASSAY TARGET": "Ret kinase (Homo sapiens, UniProt P07949)", "inhibition at 1 µM [%]": 22}
{"COMPOUND": "CCOC(=O)c1cc(Nc2cc(Oc3ccc4[nH]c(C)cc4c3F)ncn2)n[nH]1 [Example 19]", "ASSAY TARGET": "Ret kinase (Homo sapiens, UniProt P07949)", "inhibition at 1 µM [%]": 48}
{"COMPOUND": "Cc1cc2c(F)c(Oc3cc(Nc4ccc(N5CCNCC5)cc4)ncn3)ccc2[nH]1 [Example 11]", "ASSAY TARGET": "Ret kinase (Homo sapiens, UniProt P07949)", "inhibition at 1 µM [%]": 67}
{"COMPOUND": "CCN1CCN(c2ccc(Nc3ncnc(Oc4cc(F)c5[nH]c(C)cc5c4F)c3C#N)nc2)CC1 [Compound 61]", "ASSAY TARGET": "Ret kinase (Homo sapiens, UniProt P07949)", "inhibition at 1 µM [%]": -13}
{"COMPOUND": "CNC(=O)c1ccc(Nc2cc(Oc3ccc4[nH]c(C)cc4c3F)ncn2)cc1 [Example 12]", "ASSAY TARGET": "Ret kinase (Homo sapiens, UniProt P07949)", "inhibition at 1 µM [%]": 21}
{"COMPOUND": "COc1c(Nc2ccc(N3CCN(C)CC3)cc2)ncnc1Oc1ccc2[nH]c(C)cc2c1F [Compound 43]", "ASSAY TARGET": "Ret kinase (Homo sapiens, UniProt P07949)", "inhibition at 1 µM [%]": -28}

----------
biological target: Alk kinase (Homo sapiens, UniProt Q9UM73); construct: purchased Millipore (KinaseProfiler Service); test: KinaseProfiler kinase inhibition assay, Alk; assay type: biochemical; conditions: 1 μM compound
Sequence (Q9UM73 19-1620): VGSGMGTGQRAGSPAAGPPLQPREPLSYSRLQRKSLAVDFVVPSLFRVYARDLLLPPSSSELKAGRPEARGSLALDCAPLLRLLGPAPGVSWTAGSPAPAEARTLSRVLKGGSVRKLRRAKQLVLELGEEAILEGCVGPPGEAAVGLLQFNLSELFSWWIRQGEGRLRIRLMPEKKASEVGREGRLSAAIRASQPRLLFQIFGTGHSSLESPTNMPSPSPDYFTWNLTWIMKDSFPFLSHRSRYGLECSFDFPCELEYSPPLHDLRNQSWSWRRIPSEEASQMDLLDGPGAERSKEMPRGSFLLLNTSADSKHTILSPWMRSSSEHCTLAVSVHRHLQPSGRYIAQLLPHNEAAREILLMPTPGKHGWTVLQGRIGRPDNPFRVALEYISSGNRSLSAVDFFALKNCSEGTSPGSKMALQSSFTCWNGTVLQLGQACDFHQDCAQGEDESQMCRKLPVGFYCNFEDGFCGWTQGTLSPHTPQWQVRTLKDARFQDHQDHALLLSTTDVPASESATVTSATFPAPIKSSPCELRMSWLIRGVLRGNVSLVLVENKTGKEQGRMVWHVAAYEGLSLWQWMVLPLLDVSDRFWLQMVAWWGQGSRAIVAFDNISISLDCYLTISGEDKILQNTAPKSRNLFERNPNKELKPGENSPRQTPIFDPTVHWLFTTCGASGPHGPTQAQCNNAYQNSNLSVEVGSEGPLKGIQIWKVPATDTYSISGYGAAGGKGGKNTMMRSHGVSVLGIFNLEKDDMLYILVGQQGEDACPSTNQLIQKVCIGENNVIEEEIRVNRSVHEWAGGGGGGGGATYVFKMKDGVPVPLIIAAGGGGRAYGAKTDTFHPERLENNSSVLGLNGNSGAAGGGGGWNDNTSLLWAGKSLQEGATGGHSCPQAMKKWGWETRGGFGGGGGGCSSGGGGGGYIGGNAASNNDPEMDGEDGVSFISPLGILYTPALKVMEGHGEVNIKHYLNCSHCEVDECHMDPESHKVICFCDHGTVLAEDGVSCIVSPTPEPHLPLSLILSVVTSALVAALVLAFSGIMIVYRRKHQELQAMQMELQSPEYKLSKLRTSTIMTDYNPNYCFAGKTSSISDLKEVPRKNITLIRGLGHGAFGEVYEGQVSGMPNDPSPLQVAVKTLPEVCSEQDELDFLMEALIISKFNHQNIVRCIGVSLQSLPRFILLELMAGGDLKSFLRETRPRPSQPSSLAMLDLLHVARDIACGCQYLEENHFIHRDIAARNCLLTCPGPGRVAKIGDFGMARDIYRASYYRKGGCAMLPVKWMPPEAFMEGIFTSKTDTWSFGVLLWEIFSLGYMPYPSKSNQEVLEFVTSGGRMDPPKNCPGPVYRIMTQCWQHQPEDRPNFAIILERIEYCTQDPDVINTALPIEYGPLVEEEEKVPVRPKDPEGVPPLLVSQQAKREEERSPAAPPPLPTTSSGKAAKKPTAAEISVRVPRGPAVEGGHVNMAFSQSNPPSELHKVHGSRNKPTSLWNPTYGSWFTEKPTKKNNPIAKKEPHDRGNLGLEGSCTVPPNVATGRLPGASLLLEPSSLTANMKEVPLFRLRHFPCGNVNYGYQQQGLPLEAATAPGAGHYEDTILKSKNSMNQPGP

{"COMPOUND": "COc1cc(CCc2cc(Nc3cc(Oc4ccc5[nH]c(C)cc5c4F)ncn3)n[nH]2)cc(OC)c1 [Example 22]", "ASSAY TARGET": "Alk kinase (Homo sapiens, UniProt Q9UM73)", "inhibition at 1 µM / %": 15}
{"COMPOUND": "Cc1cc2c(F)c(Oc3ncnc(Nc4ccc(N5CCN(C)CC5)cc4)c3Cl)ccc2[nH]1 [Compound 35]", "ASSAY TARGET": "Alk kinase (Homo sapiens, UniProt Q9UM73)", "inhibition at 1 µM / %": -43}
{"COMPOUND": "Cc1cc2c(F)c(Oc3cc(Nc4ccc(N5CCNCC5)cc4)ncn3)ccc2[nH]1 [Example 11]", "ASSAY TARGET": "Alk kinase (Homo sapiens, UniProt Q9UM73)", "inhibition at 1 µM / %": 70}
{"COMPOUND": "Cc1cc2c(F)c(Oc3cc(Nc4cccc(N5CCOCC5)c4)ncn3)ccc2[nH]1 [Example 8]", "ASSAY TARGET": "Alk kinase (Homo sapiens, UniProt Q9UM73)", "inhibition at 1 µM / %": 60}
{"COMPOUND": "COc1c(Nc2ccc(N3CCN(C)CC3)cc2)ncnc1Oc1ccc2[nH]c(C)cc2c1F [Compound 43]", "ASSAY TARGET": "Alk kinase (Homo sapiens, UniProt Q9UM73)", "inhibition at 1 µM / %": -32}
{"COMPOUND": "C/C=C/c1cc(Nc2cc(Oc3ccc4[nH]c(C)cc4c3F)ncn2)n[nH]1 [Example 17]", "ASSAY TARGET": "Alk kinase (Homo sapiens, UniProt Q9UM73)", "inhibition at 1 µM / %": 2}
{"COMPOUND": "Cc1cc2c(F)c(Oc3cc(Nc4ccccn4)ncn3)ccc2[nH]1 [Example 18]", "ASSAY TARGET": "Alk kinase (Homo sapiens, UniProt Q9UM73)", "inhibition at 1 µM / %": 15}
{"COMPOUND": "Cc1cc2c(F)c(Oc3ncnc(Nc4ccc(N5CCN(C)CC5)cc4)c3C)ccc2[nH]1 [Compound 40]", "ASSAY TARGET": "Alk kinase (Homo sapiens, UniProt Q9UM73)", "inhibition at 1 µM / %": -23}
{"COMPOUND": "Cc1cc2c(F)c(Oc3cc(Nc4cc(-c5ccco5)[nH]n4)ncn3)ccc2[nH]1 [Example 20]", "ASSAY TARGET": "Alk kinase (Homo sapiens, UniProt Q9UM73)", "inhibition at 1 µM / %": 3}
{"COMPOUND": "Cc1cc2c(F)c(Oc3cc(N4CCN(c5ccc(N)cc5F)CC4)ncn3)ccc2[nH]1 [Example 10]", "ASSAY TARGET": "Alk kinase (Homo sapiens, UniProt Q9UM73)", "inhibition at 1 µM / %": 40}
{"COMPOUND": "CC(=O)Nc1ccc(Nc2cc(Oc3ccc4[nH]c(C)cc4c3F)ncn2)cc1 [Example 7]", "ASSAY TARGET": "Alk kinase (Homo sapiens, UniProt Q9UM73)", "inhibition at 1 µM / %": 61}
{"COMPOUND": "CCN1CCN(c2ccc(Nc3ncnc(Oc4ccc5c(cc(C)n5C)c4F)c3C#N)cc2)CC1 [Compound 65]", "ASSAY TARGET": "Alk kinase (Homo sapiens, UniProt Q9UM73)", "inhibition at 1 µM / %": -28}
{"COMPOUND": "CCN1CCN(c2ccc(Nc3ncnc(Oc4ccc5[nH]c(C)cc5c4F)c3C(N)=O)cc2)CC1 [Compound 68]", "ASSAY TARGET": "Alk kinase (Homo sapiens, UniProt Q9UM73)", "inhibition at 1 µM / %": 46}
{"COMPOUND": "CCN1CCN(c2ccc(Nc3ncnc(Oc4cc(F)c5[nH]c(C)cc5c4F)c3C#N)nc2)CC1 [Compound 61]", "ASSAY TARGET": "Alk kinase (Homo sapiens, UniProt Q9UM73)", "inhibition at 1 µM / %": -41}
{"COMPOUND": "CCN1CCN(c2ccc(Nc3ncnc(Oc4ccc5[nH]c(C)cc5c4F)c3C#N)cc2)CC1 [Compound 53]", "ASSAY TARGET": "Alk kinase (Homo sapiens, UniProt Q9UM73)", "inhibition at 1 µM / %": 49}
{"COMPOUND": "Cc1cc2c(F)c(Oc3ncnc(Nc4ccc(N5CCN(C)CC5)cn4)c3Cl)ccc2[nH]1 [Compound 34]", "ASSAY TARGET": "Alk kinase (Homo sapiens, UniProt Q9UM73)", "inhibition at 1 µM / %": 15}
{"COMPOUND": "Cc1cc2c(F)c(Oc3ncnc(Nc4ccc(N5CCN(C)CC5)cn4)c3C)ccc2[nH]1 [Compound 41]", "ASSAY TARGET": "Alk kinase (Homo sapiens, UniProt Q9UM73)", "inhibition at 1 µM / %": -41}
{"COMPOUND": "Cc1cc2c(F)c(Oc3cc(Nc4ccc(N5CCN(C)CC5)cn4)ncn3)ccc2[nH]1 [Example 15]", "ASSAY TARGET": "Alk kinase (Homo sapiens, UniProt Q9UM73)", "inhibition at 1 µM / %": 32}
{"COMPOUND": "CCN1CCN(c2ccc(Nc3cc(Oc4ccc5[nH]c(C)cc5c4F)ncn3)cc2)CC1 [Example 3]", "ASSAY TARGET": "Alk kinase (Homo sapiens, UniProt Q9UM73)", "inhibition at 1 µM / %": -2}

----------
test system: Kato III; assay: CellTiterblue viability, 72 hr, Kato III; format: cell-based; conditions: Homo sapiens, Kato III cells

{"COMPOUND": "Cc1cc2c(F)c(Oc3cc(Nc4cc(-c5ccccn5)[nH]n4)ncn3)ccc2[nH]1 [Example 6]", "GI50": "> 500 nM"}
{"COMPOUND": "Cc1cc2c(F)c(Oc3cc(Nc4ccc(N5CCNCC5)cc4)ncn3)ccc2[nH]1 [Example 11]", "GI50": "> 500 nM"}
{"COMPOUND": "CC(=O)Nc1ccc(Nc2cc(Oc3ccc4[nH]c(C)cc4c3F)ncn2)cc1 [Example 7]", "GI50": "> 500 nM"}
